pIC50, UniProtKB Q9P8Q7, per-entry values.
Sequence (Q9P8Q7 whole entry): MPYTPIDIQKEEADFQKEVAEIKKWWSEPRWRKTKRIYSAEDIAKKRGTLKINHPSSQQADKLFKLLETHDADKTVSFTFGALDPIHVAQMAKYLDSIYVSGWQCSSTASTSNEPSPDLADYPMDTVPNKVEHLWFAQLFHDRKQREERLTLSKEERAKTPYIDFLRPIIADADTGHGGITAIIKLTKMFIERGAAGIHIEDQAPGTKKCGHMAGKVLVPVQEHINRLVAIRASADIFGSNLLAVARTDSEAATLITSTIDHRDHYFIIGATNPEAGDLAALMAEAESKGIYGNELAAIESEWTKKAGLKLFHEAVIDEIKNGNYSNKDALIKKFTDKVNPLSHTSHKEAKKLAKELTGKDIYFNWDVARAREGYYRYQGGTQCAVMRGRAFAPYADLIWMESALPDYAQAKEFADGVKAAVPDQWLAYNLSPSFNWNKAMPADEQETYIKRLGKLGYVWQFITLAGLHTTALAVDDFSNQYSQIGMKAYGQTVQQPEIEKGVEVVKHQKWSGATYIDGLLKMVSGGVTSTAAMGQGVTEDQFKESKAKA
// pIC50 here means minus log10 of the molar concentration (mol/L)

{"columns": ["COMPOUND", "EXPERIMENTAL SYSTEM", "pIC50"],
 "data": [
  ["O=C(O)CC[N+](=O)[O-]", "UniProtKB Q9P8Q7", 4.76]
]}

Just so you know, measured pIC50 for CC(C)[C@@H]1OC(=O)/C=C/C=C/C=C/C=C/C=C/C=C/C[C@@H](O)C[C@H](O)C[C@H](O)C[C@H](O)C[C@@H](O)C[C@H](O)C[C@@H](O)C[C@@H](O)C[C@@H](O)CC[C@@H]1C [BAHAMAOLIDE A] came out at 4.93

Data origin, for the record: ChEMBL document CHEMBL3352126
